Origin of the recorded values: ChEMBL document CHEMBL4689842

Assignment: determine reported Population Mitochondria Different-Phenotype (%) for the given compounds.
# Tested on: U2OS
# assayText: Multiplex assay against U2OS
# Assay type: toxicity, cell-based
# conditionDetails: human, 48 h, 10 µM, compound concentration 10 uM, replicate 2
# output: bare number, implied unit %

Using known records, supply Population Mitochondria Different-Phenotype (%) for COc1ccc(NS(=O)(=O)c2sc3ccc(Cl)cc3c2C)cc1N1CCNCC1.Cl
93

Using known records, supply Population Mitochondria Different-Phenotype (%) for CNc1oc(-c2cccc3ccccc23)nc1C#N
5

Using known records, supply Population Mitochondria Different-Phenotype (%) for CNC(=O)c1nn(C)c2c1C(C)(C)Cc1cnc(Nc3ccc(N4CCN(C)CC4)cc3)nc1-2
97

Using known records, supply Population Mitochondria Different-Phenotype (%) for Cc1cc2c(cc1N1C(=O)c3cccc4c(CCCO)ccc(c34)C1=O)n(C)c(=O)n2C
57

Using known records, supply Population Mitochondria Different-Phenotype (%) for CCCn1c(=O)c2[nH]c(C34CC5CC(CC3C5)C4)nc2n(CCC)c1=O
68

Using known records, supply Population Mitochondria Different-Phenotype (%) for CC(=O)c1cc(-c2cc(C(=O)NC3CC3)ccc2C)c2ncccn12
29

Using known records, supply Population Mitochondria Different-Phenotype (%) for Nc1ccc(C(=O)Nc2cccc(-c3nc(N4CCOCC4)c4oc5ncccc5c4n3)c2)cn1
100

Using known records, supply Population Mitochondria Different-Phenotype (%) for CCn1c(-c2nonc2N)nc2cnc(Oc3cccc(NC(=O)c4ccc(OCCN5CCOCC5)cc4)c3)cc21 [GSK-269962A]
97

Using known records, supply Population Mitochondria Different-Phenotype (%) for O=C(O)c1ccc2cc(-c3ccc(O)c(C45CC6CC(CC(C6)C4)C5)c3)ccc2c1
54
